Tested on: OVCAR-3
Test: NCI tumour cell line growth inhibition, 48 h
Active and inactive are the calls of the source. Cut-off read from the data, not from the text of the source: active = GI50 up to about 1.1 µM and inactive = higher.
The reply should name one outcome from true = active, false = inactive

Previously resolved entries follow.
Molecule: CCOC(=O)c1ccc(C(=O)C(C(C)=O)C(=O)OC(C)(C)C)[nH]1 (centres undefined)
Group: false
//
Molecule: C[C@@]12CCC(=O)C=C1CC[C@H]1C2=CC[C@]2(C)C1CC[C@@]2(C)O (some centres undefined)
Group: false
//
Molecule: O=c1oc2ccccc2cc1-c1cn2cc(Cl)ccc2n1
Group: true

# next molecule below
*Q* Lab log entry: "O=c1cc(NNc2ccccc2)[nH]c(=O)[nH]1" — outcome as called in the assay?
*A* false

* * *

Test system: NCI-H23
Assay: NCI tumour cell line growth inhibition, 48 h
Active and inactive are the calls of the source. No stated cut-off is given here; in the data, active = GI50 up to about 1.1 µM and inactive = higher.
Choose one outcome from this list and give only that: active, inactive

The examples below pair each entry with its known result.
Molecule: CCOC(=O)c1nc2ccccc2n(CC)c1=O
Assay system: NCI-H23
Group: inactive

Molecule: CC1=C2C(=C[C@@](C)(CO)[C@@H]2O)C(=O)[C@](C)(O)C12CC2
Assay system: NCI-H23
Group: active

Molecule: O=C(O)CCCc1ccc2ccc3ccccc3c2c1
Assay system: NCI-H23
Group: inactive

Molecule: C/C=C/C(C#N)O[Si](C)(C)C (stereo not drawn)
Assay system: NCI-H23
Group: inactive

Molecule: CCOc1ccc(NC(=O)C(=O)C2C(=O)Nc3ccccc3[S+]2[O-])cc1 (stereo not drawn)
Assay system: NCI-H23
Group: inactive

Molecule: CC(C)(Oc1ccc2c(=O)cc(-c3ccc(Cl)cc3)oc2c1)C(=O)Nc1c(Cl)cccc1Cl
Assay system: NCI-H23
Group: inactive

Molecule: CCn1c(-c2ccc(C)cc2)cs/c1=N\C(P(=O)(O)O)P(=O)(O)O
Assay system: NCI-H23
Group: inactive

Molecule: Cc1cc(S(=O)(=O)Nc2nncn2-c2ccc(Cl)cc2)c(S)cc1Cl
Assay system: NCI-H23
Group: inactive

Molecule: Cc1ccc(S(=O)(=O)NN=C2CCCCCCCCCCC2)cc1
Assay system: NCI-H23
Group: inactive

Molecule: CC1=Nc2ccccc2C12C(c1ccccc1)C(c1ccccc1)C(=O)N1c3ccccc3CC12 (stereo not drawn)
Assay system: NCI-H23
Group: inactive

*Q* Per the assay record, what outcome was assigned to "CN(C(=O)C1=CCCCCC1)c1ccccc1I" ?
*A* inactive

*Q* Test call for this molecule, please: "COc1cccc(/C=C\c2cc(OC)c(OC)c(OC)c2)c1"
*A* inactive

*Q* Short answer needed: outcome of this test for "CCOCN1COCN/C1=N/C#N" ?
*A* inactive

*Q* Check the results log: what was the call for N#Cc1ccccc1NC(=O)C(=O)C(C(=O)c1ccccc1-c1ccccc1)C1OC(=O)c2ccccc21 (stereo not drawn) ?
*A* inactive

*Q* Call for entry "CC(=O)NCCCCN(CCCNC(C)=O)C(=O)OCc1ccccc1" :
*A* inactive

*Q* Identify the outcome logged in this assay for the molecule shown: "Cc1ccc(NC(=O)/C(=N\Nc2ccc([N+](=O)[O-])cc2[N+](=O)[O-])C2C(=O)NC(=O)NC2=O)cc1"
*A* inactive

*Q* Please state the recorded outcome for this molecule: Cc1cccc(C)c1NC(=O)C(=O)C1C(=O)N(c2ccccc2)N=C1N (stereo not drawn)
*A* inactive

*Q* Give the logged outcome of this assay for the following molecule: CC1(C)CC(=O)C2(CC(CSc3ccccc3)C(CS(=O)(=O)c3ccccc3)C2)C(=O)C1 (stereo not drawn)
*A* inactive

* * *

System: UACC-62
Assay: NCI tumour cell line growth inhibition, 48 h
The source made the active and inactive calls. No stated cut-off is given here; in the data, active = GI50 up to about 1.1 µM and inactive = higher.
Just give me one of these, please: yes for active, no for inactive

Illustrative cases are given below, each with its answer.
Compound: NC(=O)c1cn(C2OC(CO)C(O)C2O)c(=O)[nH]c1=O (stereo not given)
Group: no
//
Compound: N#CCC(=O)N/N=C1\C(=O)N(c2ccc(Cl)cc2)C(=O)C(=O)C1c1nc2ccccc2o1 (stereo not given)
Group: no

*Q* # fetch the recorded call for COc1cc(/C=C2/C(=O)N(C(=O)OC(C)C)C(Cc3cc(OC)c(OC)c(C)c3OC)C(=O)N2Cc2ccccc2)c(OC)c(C)c1OC (stereo not given) here
*A* no

*Q* State the result this test recorded for "[N-]=[N+]=CC(=O)OCCCCl" .
*A* no

*Q* Name the outcome recorded for "C[n+]1c2ccccc2c(/C=N\NS(=O)(=O)c2ccc(Cl)cc2)c2ccccc21" in the assay.
*A* no

*Q* // param item: CC(C)CCCC(C)[C@H]1CCC2[C@@H]3CCC4Nc5c(cnn5-c5ccccc5)C[C@]4(C)C3CC[C@@]21C (stereo not given in full) ; yields the recorded call
*A* no

*Q* What classification did "O=C(O)CCCc1ccc2ccc3ccccc3c2c1" end up with in this test?
*A* no

*Q* Record lookup: outcome of this test for "CC(=O)Nc1ccc(-c2nnc(SCC(=O)Nc3cccc(C)c3)o2)cc1" ?
*A* no

*Q* Short answer needed: outcome of this test for "O=c1cc(-c2ccccc2)[nH]c2cccc(S)c12" ?
*A* yes

*Q* # fetch the recorded call for COC1=C(C(c2cc(OC)c(OC)c(OC)c2)c2cc3c(cc2OC)OCO3)C(=O)OC1 (stereo not given) here
*A* no

* * *

Recorded GI50 by entry
System: OVCAR-3
Experiment: NCI tumour cell line growth inhibition, 48 h
The source made the active and inactive calls. Rule as the data show it: active = GI50 up to about 1.1 µM and inactive = higher.

The examples below pair each entry with its known result.
Molecule: O=C1OC[C@@H]2Cc3c([nH]c4ccccc34)[C@@H](c3ccc(O)cc3)N12
Assay value: 17.4 µM (inactive)
//
Molecule: COc1cc(/C=C2/C(=O)N(C(=O)OC(C)C)C(Cc3cc(OC)c(OC)c(C)c3OC)C(=O)N2Cc2ccccc2)c(OC)c(C)c1OC (stereo not given)
Assay value: 12.7 µM (inactive)
//
Molecule: O=C1C=CC(=O)c2c(O)nc(CBr)nc21
Assay value: > 100 µM (inactive)

Hey, OVCAR-3 data for "CN(/N=C/c1cccc2cccnc12)c1ccc([N+](=O)[O-])cc1[N+](=O)[O-]" : GI50 came out at 16.4 µM (inactive)

Bench note, OVCAR-3: entry CCOP(=O)(OCC)C(Cc1c[nH]c2ccccc12)C(=O)O (stereo not given) , its GI50 = > 100 µM (inactive)

The observed GI50 for CC(NC(=O)c1ccc(OP(=O)(OCC2=CC(=O)c3ccccc3C2=O)N(C)CCCCCl)cc1)c1ccc(OCC2CCCCC2)c(C(N)=O)c1 (stereo not given) when tested with OVCAR-3 stands at 1.41 µM (inactive)

* * *

Test system: MDA-N
Experiment: NCI tumour cell line growth inhibition, 48 h
Active and inactive are the calls of the source. Rule as the data show it: active = GI50 up to about 1.1 µM and inactive = higher.
Parameter call: string, one of active, inactive

// known answers, use as guide
Molecule: CC[C@@H]1CN(C)[C@H]2Cc3c([nH]c4ccccc34)C(=O)C[C@H]1C2C(=O)OC (stereo partly specified)
Group: inactive

Molecule: Cc1ccc2c(c1)CC1(C2)Cc2ccc(C)cc2C1=O (stereo unspecified)
Group: inactive

Molecule: Nc1nc(Cl)c(N)c(NCC2(CO)CCC(OCc3ccccc3)C2)n1 (stereo unspecified)
Group: inactive

Molecule: CONC(C)=O
Group: inactive

Molecule: COc1ccc(-c2cc(=O)c3c(OC)c(O)c(OC)cc3o2)cc1
Group: inactive

Molecule: O=C1c2n[nH]nc2C(=O)c2n[nH]nc21
Group: inactive

*Q* Recorded call for "CNNC(=NS(=O)(=O)c1cc(C#N)c(NNC)cc1S)NNC" ?
*A* inactive

*Q* Which result was noted for this molecule in the test: "O=c1[nH]cc(/C=N\Nc2ccccc2)c(=O)[nH]1"
*A* inactive

* * *

System: HCT-116
Assay: NCI tumour cell line growth inhibition, 48 h
Calls of active or inactive are those of the source. No stated cut-off is given here; in the data, active = GI50 up to about 1.1 µM and inactive = higher.
Quantity: GI50

The cases that follow already have their GI50 on record.
Compound: CCOC(=O)c1nc2ccccc2n(CC)c1=O
GI50: > 100 µM (inactive)
--
Compound: O=C(O)C(Br)C(Br)C(=O)O (stereo unspecified)
GI50: > 100 µM (inactive)
--
Compound: Cc1n[nH]c(C(F)(F)F)c1/N=N/N(C)C
GI50: 1.93 µM (inactive)
--
Compound: CCC(=O)C1(N2CCOCC2)CCN(CCCC(=O)c2ccc(F)cc2)CC1
GI50: > 100 µM (inactive)

The value of GI50 measured for the compound COc1ccc2c(c1)CC1Cc3cc(OC)c(OC)cc3CN1CC2 (stereo unspecified) turned out to be 23.5 µM (inactive)

Note to self: GI50 recorded for "CCOc1ccccc1NC(=O)C(=O)CC(=O)C1=C(C)Nc2ccccc2S1" was > 100 µM (inactive)

* * *

Test system: A498
Experiment: NCI tumour cell line growth inhibition, 48 h
Active and inactive are the calls of the source. No stated cut-off is given here; in the data, active = GI50 up to about 1.1 µM and inactive = higher. Starred links: 1 amine or outer side, 2 acyl side, 3 side chain; linkers in the order of their positions; H or OH if unused. Positions of bridges follow the written chain, without caps; N, C: chain ends. Non-standard residues stand in square brackets, D forms with d. Residues, ends and D or L forms follow the SMILES beside them. ξ: configuration not given here. X11 = CCC(C)C(N[*:1])C(O)CC(=O)O[C@H](C(=O)C(C)C(=O)[*:2])C(C)C; X10 = O=C([C@@H]1CC(O)CN1[*:1])[*:2]; NMeY = CN[C@@H](Cc1ccc(O)cc1)C(=O)O; ξNMeL = CNC(CC(C)C)C(=O)O; ξT = CC(O)C(N)C(=O)O
Pick one: 1 (yes) for active, 0 (no) for inactive

Take a look at these entries with their results.
Compound: O=C1/C(=C/c2ccco2)NC(=S)N1CN1CCOCC1
Assay system: A498
Group: 0 (no)

Compound: O=C(O)C(Br)C(Br)C(=O)O (configuration not stated)
Assay system: A498
Group: 0 (no)

Compound: N#Cc1ccccc1NC(=O)C(=O)C(C(=O)c1ccccc1-c1ccccc1)C1OC(=O)c2ccccc21 (configuration not stated)
Assay system: A498
Group: 0 (no)

Compound: CCC(C)C1NC(=O)C(NC(=O)C(CC(C)C)N(C)C(=O)[C@@H]2CC(O)CN2)C(C)OC(=O)[C@H](Cc2ccc(OC)cc2)N(C)C(=O)[C@@H]2CCCN2C(=O)[C@H](CC(C)C)NC(=O)C(C)C(=O)[C@H](C(C)C)OC(=O)CC1O (some centres not stated) (H-[X10][ξNMeL][ξT][X11]LP[NMeY](Me); ester 3-C)
Assay system: A498
Group: 1 (yes)

Compound: Cc1ccc(-n2cnc3c(N)nc(N)nc32)cc1
Assay system: A498
Group: 0 (no)

Compound: CC(C)OC(=O)C1=C(O)c2ccccc2S(=O)(=O)N1
Assay system: A498
Group: 0 (no)

Compound: COc1cc2c(cc1O)CC[C@@H]1C2CC[C@@]2(C)C1CC[C@@H]2O (some centres not stated)
Assay system: A498
Group: 0 (no)

Compound: CC(=O)Oc1c2c(c(OC(C)=O)c3c1n(C(C)=O)c1ccccc1n3C(C)=O)n(C(C)=O)c1ccccc1n2C(C)=O
Assay system: A498
Group: 0 (no)

*Q* I would be grateful if you could indicate the recorded call for "CC1(C)OC[C@@H](O)[C@H](Br)CO1" .
*A* 0 (no)

*Q* Record request — test call for "CC(C)(C)c1ccc(-n2c3nc(=O)n(-c4ccccc4CO)c(=O)c-3cc3ccccc32)cc1"
*A* 0 (no)

*Q* Fill in: this test's call for "c1cc2n(n1)CCN2" is ___
*A* 0 (no)

*Q* Dear all, I need the recorded test outcome for COc1cc([C@@H]2c3cc4c(cc3[C@@H](NCc3ccccc3)C3COC(=O)[C@@H]32)OCO4)cc(OC)c1O (some centres not stated) , thank you.
*A* 0 (no)

*Q* Returns: the outcome recorded for "CN(Cc1ccccc1)c1cc(=O)n(C)c(=O)[nH]1" in this assay.
*A* 0 (no)

*Q* Entry "Cc1[nH]c2c(c1Cc1ccccc1)C1=NC=C(O)NN1C=N2" : call = ?
*A* 0 (no)

*Q* For this compound, state the assay outcome: COc1cc(C2C(C#N)=C(N)OC3=C2CCS(=O)(=O)c2ccc(C)cc23)cc(OC)c1OC (configuration not stated)
*A* 0 (no)
